- Target system: T1, human MHC class I molecule HLA-A*0201 (human)
- T1 construct: MHC class I molecule on the surface of T2 cells; also called HLA-A2; HLA-A201
- Test summary: peptide/HLA-A2 complex stability on T2 cells after peptide removal and emetine, 37 C, anti-HLA-A2 flow cytometry, normalized to CMV/HLA-A2
Assay endpoint: % of peptide/HLA-A2 complex dissociated in 4 hours

>  <Binder>
RLLCALTSL [IGRP293]

>  <Value>
~20%

$$$$
>  <Binder>
ALWMRLLPL [Insulin2]

>  <Value>
~20%

$$$$
>  <Binder>
SLSPLQAEL [IA-2(172)]

>  <Value>
< 5%

$$$$
>  <Binder>
FLFAVGFYL [IGRP215]

>  <Value>
< 5%

$$$$
>  <Binder>
KLQVFLIVL (also called HTV1; HTV-1) [IAPP5]

>  <Value>
< 5%

$$$$
>  <Binder>
FLWSVFMLI [IGRP152]

>  <Value>
< 5%

$$$$

Let me know recorded % of peptide/HLA-A2 complex dissociated in 4 hours for FLIVLSVAL [IAPP9] , thanks.
< 5%

Let me know recorded % of peptide/HLA-A2 complex dissociated in 4 hours for GMAELMAGL [Phogrin331] , thanks.
~20%

These data points were gathered from patent US20070129307A1.
